# MEASURED_TARGET: T1, Human CD137 ECD (human)
# T1 construct: entry includes C-terminal His-tag and biotin acceptor peptide; also called human CD137 extracellular domain; 4-1BB
# T1 sequence (chain, as listed by the source limits assumed): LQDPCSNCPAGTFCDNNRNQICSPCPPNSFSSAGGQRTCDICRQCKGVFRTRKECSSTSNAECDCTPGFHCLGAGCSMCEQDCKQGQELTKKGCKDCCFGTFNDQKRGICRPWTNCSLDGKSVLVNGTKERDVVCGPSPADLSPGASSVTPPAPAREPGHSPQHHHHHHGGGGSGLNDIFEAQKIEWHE
# MEASUREMENT_PROTOCOL: Biacore SPR, vs parent H183/L072

BINDER	fold change of affinity (fold)
H183/L072 VL T97W (antibody, name in Kabat numbering, V domains shown, Dual-Ig) VH: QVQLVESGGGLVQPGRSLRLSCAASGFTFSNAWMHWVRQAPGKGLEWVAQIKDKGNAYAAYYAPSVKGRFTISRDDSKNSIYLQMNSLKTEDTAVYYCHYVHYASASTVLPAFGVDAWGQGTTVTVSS VL: DIVMTQSPLSLPVTPGEPASISCQASQELVHMNRNTYLHWYQQKPGQAPRLLIYKVSNRFPGVPDRFSGSGSGTDFTLKISRVEAEDVGVYYCAQGTSVPFWFGQGTKLEIK	0.1
H183/L072 VL P95F (antibody, name in Kabat numbering, V domains shown, Dual-Ig) VH: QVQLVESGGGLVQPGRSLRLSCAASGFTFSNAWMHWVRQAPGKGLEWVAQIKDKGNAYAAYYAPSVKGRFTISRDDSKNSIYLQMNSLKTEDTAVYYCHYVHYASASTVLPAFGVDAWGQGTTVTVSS VL: DIVMTQSPLSLPVTPGEPASISCQASQELVHMNRNTYLHWYQQKPGQAPRLLIYKVSNRFPGVPDRFSGSGSGTDFTLKISRVEAEDVGVYYCAQGTSVFFTFGQGTKLEIK	0
H183/L072 VL Q24P (antibody, name in Kabat numbering, V domains shown, Dual-Ig) VH: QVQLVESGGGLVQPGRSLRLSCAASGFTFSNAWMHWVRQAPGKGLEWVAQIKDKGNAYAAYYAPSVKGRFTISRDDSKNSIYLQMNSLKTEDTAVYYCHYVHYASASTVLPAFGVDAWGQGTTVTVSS VL: DIVMTQSPLSLPVTPGEPASISCPASQELVHMNRNTYLHWYQQKPGQAPRLLIYKVSNRFPGVPDRFSGSGSGTDFTLKISRVEAEDVGVYYCAQGTSVPFTFGQGTKLEIK	0
